system_name: human mGlu5a receptor (Homo sapiens)
Construct: expressed in transfected cells; host or cells: HEK-293 (monoclonal, stably transfected)
Sequence (P41594 21-1180 isoform P41594-2 limits assumed): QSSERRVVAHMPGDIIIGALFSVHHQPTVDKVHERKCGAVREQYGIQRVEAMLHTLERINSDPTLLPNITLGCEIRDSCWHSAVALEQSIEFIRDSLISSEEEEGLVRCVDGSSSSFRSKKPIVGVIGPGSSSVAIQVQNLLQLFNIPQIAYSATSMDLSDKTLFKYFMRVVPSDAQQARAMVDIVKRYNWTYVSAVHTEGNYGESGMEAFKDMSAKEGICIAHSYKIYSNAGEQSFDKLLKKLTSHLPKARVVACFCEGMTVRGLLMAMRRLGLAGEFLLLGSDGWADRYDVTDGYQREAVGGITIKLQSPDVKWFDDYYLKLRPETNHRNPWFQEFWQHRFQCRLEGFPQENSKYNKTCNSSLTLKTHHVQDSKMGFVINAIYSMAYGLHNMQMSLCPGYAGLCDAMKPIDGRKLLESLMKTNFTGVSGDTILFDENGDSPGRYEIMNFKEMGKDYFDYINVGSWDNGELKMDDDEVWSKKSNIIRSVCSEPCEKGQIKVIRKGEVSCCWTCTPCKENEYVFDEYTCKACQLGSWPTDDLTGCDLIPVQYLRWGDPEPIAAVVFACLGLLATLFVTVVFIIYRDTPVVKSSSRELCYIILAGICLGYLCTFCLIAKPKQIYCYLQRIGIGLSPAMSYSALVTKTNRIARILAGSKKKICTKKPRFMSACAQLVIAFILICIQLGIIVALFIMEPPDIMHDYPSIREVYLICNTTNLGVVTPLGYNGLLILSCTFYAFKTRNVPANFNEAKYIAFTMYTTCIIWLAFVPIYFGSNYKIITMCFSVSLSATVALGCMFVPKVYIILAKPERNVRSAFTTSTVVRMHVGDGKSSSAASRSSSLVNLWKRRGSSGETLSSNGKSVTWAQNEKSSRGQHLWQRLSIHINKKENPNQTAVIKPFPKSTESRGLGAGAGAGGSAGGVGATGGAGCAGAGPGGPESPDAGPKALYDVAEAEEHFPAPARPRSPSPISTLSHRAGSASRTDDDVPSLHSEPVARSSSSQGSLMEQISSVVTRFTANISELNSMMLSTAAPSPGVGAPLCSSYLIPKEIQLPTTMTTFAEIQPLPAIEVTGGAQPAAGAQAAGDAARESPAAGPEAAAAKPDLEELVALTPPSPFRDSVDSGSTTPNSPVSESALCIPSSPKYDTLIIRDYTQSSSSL
experimental_details: Intracellular Ca2+ mobilization assay (mGlu5 PAM)
Type: cell-based
conditions: maximal response in % of the maximal stimulatory effect obtained with saturating L-glutamate
Hi! Just check whether Efficacy [%] is below 50%. Below gives Yes, equal or above gives No.

INSERT INTO assay_data (molecule, class) VALUES
  ('O=C1C[C@H]2CCC[C@H]2N1c1ccc(C#Cc2cc(F)ccc2F)cn1 [Example 4]', 'Yes'),
  ('CC1(C)CC(=O)N(c2ccc(C#Cc3ccccc3)cn2)C1 [Ref. 1 Ex. 13, reference compound]', 'No'),
  ('CC1(C)CC(=O)N(c2ccc(C#Cc3cccc(F)c3)cn2)C1 [Ref. 1 Ex. 40, reference compound]', 'No'),
  ('O=C1C[C@H]2CCC[C@H]2N1c1ccc(C#Cc2cccc(F)c2)cn1 [Example 2]', 'Yes'),
  ('O=C1C[C@H]2CCC[C@H]2N1c1ccc(C#Cc2ccccc2)cn1 [Example 1]', 'Yes'),
  ('O=C1C[C@H]2CCC[C@H]2N1c1ccc(C#Cc2ccc(F)cc2)cn1 [Example 3]', 'Yes'),
  ('O=C1CC2(CCCC2)CN1c1ccc(C#Cc2ccccc2)cn1 [Ref. 1 Ex. 59, reference compound]', 'No');
